- TARGET: Protein O-GlcNAcase (Homo sapiens)
- Sequence (O60502 whole entry): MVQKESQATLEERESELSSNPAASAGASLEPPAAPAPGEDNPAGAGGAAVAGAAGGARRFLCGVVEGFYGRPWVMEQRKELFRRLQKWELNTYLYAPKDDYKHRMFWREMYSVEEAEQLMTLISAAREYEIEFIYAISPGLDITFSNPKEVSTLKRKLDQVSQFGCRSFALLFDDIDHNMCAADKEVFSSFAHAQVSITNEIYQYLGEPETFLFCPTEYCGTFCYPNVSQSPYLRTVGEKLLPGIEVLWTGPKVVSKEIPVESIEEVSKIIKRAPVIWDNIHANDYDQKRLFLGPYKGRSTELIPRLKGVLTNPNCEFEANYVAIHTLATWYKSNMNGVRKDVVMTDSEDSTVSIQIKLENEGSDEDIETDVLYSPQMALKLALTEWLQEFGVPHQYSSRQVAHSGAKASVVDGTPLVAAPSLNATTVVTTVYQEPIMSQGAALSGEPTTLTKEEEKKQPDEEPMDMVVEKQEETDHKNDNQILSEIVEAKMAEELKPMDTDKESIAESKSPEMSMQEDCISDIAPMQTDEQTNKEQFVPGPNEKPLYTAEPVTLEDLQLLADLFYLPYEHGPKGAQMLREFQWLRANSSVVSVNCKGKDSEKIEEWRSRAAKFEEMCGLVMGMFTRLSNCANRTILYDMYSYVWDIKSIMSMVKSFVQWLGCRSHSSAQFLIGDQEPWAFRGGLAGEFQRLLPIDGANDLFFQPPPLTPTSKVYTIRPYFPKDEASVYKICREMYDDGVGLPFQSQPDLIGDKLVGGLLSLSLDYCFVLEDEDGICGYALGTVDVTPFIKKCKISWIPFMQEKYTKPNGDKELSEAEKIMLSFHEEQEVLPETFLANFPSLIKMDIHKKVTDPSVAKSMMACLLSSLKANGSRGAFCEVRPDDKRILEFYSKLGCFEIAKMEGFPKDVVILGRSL
- ASSAY_NOTES: Inhibition of recombinant human OGA expressed in Escherichia coli BL21 (DE3) using 4-Mu-GlcNAc as substrate preincubated for 10 mins followed by substrate addition and measured after 30 mins by fluorescence assay
pIC50: −log10 of the molar value.
MEASURED_ENDPOINT: pIC50

SMILES_CODE	MEASURED_ENDPOINT	MEAS_VALUE
CC(=O)N[C@@H]1[C@@H](O)[C@H](O)[C@@H](CO)O[C@H]1SCCNCCN1C(=O)c2cccc3c(N(C)C)ccc(c23)C1=O	pIC50	4.60

====

We begin with a simple list: items and their reported Ki.
- TARGET: Protein O-GlcNAcase (Homo sapiens)
- ASSAY_NOTES: Inhibition of recombinant human OGA expressed in Escherichia coli BL21 (DE3) using varying levels of 4-Mu-GlcNAc as substrate preincubated for 10 mins followed by substrate addition and measured after 30 mins by dixon plot analysis

SMILES_CODE	Ki / µM
CC(=O)N[C@@H]1[C@@H](O)[C@H](O)[C@@H](CO)O[C@H]1SCCNCCCN1C(=O)c2cccc3c([N+](=O)[O-])ccc(c23)C1=O	8.3
CC(=O)N[C@@H]1[C@@H](O)[C@H](O)[C@@H](CO)O[C@H]1SCCCNCCN1C(=O)c2cccc3c(N4CCCCC4)ccc(c23)C1=O	3.2
CC(=O)N[C@@H]1[C@@H](O)[C@H](O)[C@@H](CO)O[C@H]1SCCNCCCN1C(=O)c2cccc3c(Br)ccc(c23)C1=O	0.9
COc1ccc2c3c(cccc13)C(=O)N(CCCNCCS[C@@H]1O[C@H](CO)[C@@H](O)[C@H](O)[C@H]1NC(C)=O)C2=O	1.6
COc1ccc2c3c(cccc13)C(=O)N(CCNCCS[C@@H]1O[C@H](CO)[C@@H](O)[C@H](O)[C@H]1NC(C)=O)C2=O	6.7
CC(=O)N[C@@H]1[C@@H](O)[C@H](O)[C@@H](CO)O[C@H]1SCCNCCCN1C(=O)c2cccc3c(Cl)ccc(c23)C1=O	0.8
CC(=O)N[C@@H]1[C@@H](O)[C@H](O)[C@@H](CO)O[C@H]1SCCCNCCN1C(=O)c2cccc3c(Br)ccc(c23)C1=O	3.5

====

- TARGET: Beta-hexosaminidase subunit beta (Homo sapiens) (UniProt P07686)
- ASSAY_NOTES: Inhibition of recombinant human His6-tagged HexB expressed in Pichia pastoris at 20 uM using 4-Mu-GlcNAc as substrate preincubated for 10 mins followed by substrate addition and measured after 30 mins by fluorescence assay relative to control

SMILES_CODE	TARGET	OUTPUT_UNIT	inhibition
CC(=O)N[C@@H]1[C@@H](O)[C@H](O)[C@@H](CO)O[C@H]1SCCCNCCCN1C(=O)c2cccc3c(N4CCCCC4)ccc(c23)C1=O	Beta-hexosaminidase subunit beta (Homo sapiens) (UniProt P07686)	%	0
CC(=O)N[C@@H]1[C@@H](O)[C@H](O)[C@@H](CO)O[C@H]1SCCNCCCN1C(=O)c2cccc3c(Br)ccc(c23)C1=O	Beta-hexosaminidase subunit beta (Homo sapiens) (UniProt P07686)	%	70.5
CC(=O)N[C@@H]1[C@@H](O)[C@H](O)[C@@H](CO)O[C@H]1SCCNCCCN1C(=O)c2cccc3c(N(C)C)ccc(c23)C1=O	Beta-hexosaminidase subunit beta (Homo sapiens) (UniProt P07686)	%	0
CC(=O)N[C@@H]1[C@@H](O)[C@H](O)[C@@H](CO)O[C@H]1SCCNCCN1C(=O)c2cccc3c(N4CCCCC4)ccc(c23)C1=O	Beta-hexosaminidase subunit beta (Homo sapiens) (UniProt P07686)	%	0
COc1ccc2c3c(cccc13)C(=O)N(CCCNCCCS[C@@H]1O[C@H](CO)[C@@H](O)[C@H](O)[C@H]1NC(C)=O)C2=O	Beta-hexosaminidase subunit beta (Homo sapiens) (UniProt P07686)	%	45.2
CC(=O)N[C@@H]1[C@@H](O)[C@H](O)[C@@H](CO)O[C@H]1SCCCNCCCN1C(=O)c2cccc3c(Br)ccc(c23)C1=O	Beta-hexosaminidase subunit beta (Homo sapiens) (UniProt P07686)	%	65
CC(=O)N[C@@H]1[C@@H](O)[C@H](O)[C@@H](CO)O[C@H]1SCCCNCCN1C(=O)c2cccc3c(N(C)C)ccc(c23)C1=O	Beta-hexosaminidase subunit beta (Homo sapiens) (UniProt P07686)	%	0
CC(=O)N[C@@H]1[C@@H](O)[C@H](O)[C@@H](CO)O[C@H]1SCCNCCN1C(=O)c2cccc3c(N(C)C)ccc(c23)C1=O	Beta-hexosaminidase subunit beta (Homo sapiens) (UniProt P07686)	%	0
CC(=O)N[C@@H]1[C@@H](O)[C@H](O)[C@@H](CO)O[C@H]1SCCNCCCN1C(=O)c2cccc3c(N4CCCCC4)ccc(c23)C1=O	Beta-hexosaminidase subunit beta (Homo sapiens) (UniProt P07686)	%	0
COc1ccc2c3c(cccc13)C(=O)N(CCNCCCS[C@@H]1O[C@H](CO)[C@@H](O)[C@H](O)[C@H]1NC(C)=O)C2=O	Beta-hexosaminidase subunit beta (Homo sapiens) (UniProt P07686)	%	39
CC(=O)N[C@@H]1[C@@H](O)[C@H](O)[C@@H](CO)O[C@H]1SCCCNCCN1C(=O)c2cccc3c(N4CCCCC4)ccc(c23)C1=O	Beta-hexosaminidase subunit beta (Homo sapiens) (UniProt P07686)	%	0
CC(=O)N[C@@H]1[C@@H](O)[C@H](O)[C@@H](CO)O[C@H]1SCCNCCN1C(=O)c2cccc3c([N+](=O)[O-])ccc(c23)C1=O	Beta-hexosaminidase subunit beta (Homo sapiens) (UniProt P07686)	%	13.8
CC(=O)N[C@@H]1[C@@H](O)[C@H](O)[C@@H](CO)O[C@H]1SCCCNCCN1C(=O)c2cccc3c([N+](=O)[O-])ccc(c23)C1=O	Beta-hexosaminidase subunit beta (Homo sapiens) (UniProt P07686)	%	0
COc1ccc2c3c(cccc13)C(=O)N(CCNCCS[C@@H]1O[C@H](CO)[C@@H](O)[C@H](O)[C@H]1NC(C)=O)C2=O	Beta-hexosaminidase subunit beta (Homo sapiens) (UniProt P07686)	%	22.5

====

- TARGET: Beta-hexosaminidase subunit beta (Homo sapiens, UniProt P07686)
- Sequence (P07686 43-311 limits assumed): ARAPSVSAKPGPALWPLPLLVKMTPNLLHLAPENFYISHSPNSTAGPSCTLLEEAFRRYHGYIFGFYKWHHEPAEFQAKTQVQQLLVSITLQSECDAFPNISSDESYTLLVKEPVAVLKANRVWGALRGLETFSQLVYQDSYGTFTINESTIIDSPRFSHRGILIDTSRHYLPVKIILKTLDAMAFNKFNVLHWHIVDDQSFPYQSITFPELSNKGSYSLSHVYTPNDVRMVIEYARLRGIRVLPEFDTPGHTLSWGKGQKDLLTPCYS
- Sequence (P07686 315-556 limits assumed): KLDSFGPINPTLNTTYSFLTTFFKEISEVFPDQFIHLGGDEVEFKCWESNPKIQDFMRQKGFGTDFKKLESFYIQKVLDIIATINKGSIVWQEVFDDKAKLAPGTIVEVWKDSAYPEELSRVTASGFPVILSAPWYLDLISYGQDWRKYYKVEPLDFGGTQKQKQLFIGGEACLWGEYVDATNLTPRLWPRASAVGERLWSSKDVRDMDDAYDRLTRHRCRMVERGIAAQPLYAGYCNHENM
- ASSAY_NOTES: Inhibition of recombinant human His6-tagged HexB expressed in Pichia pastoris using 4-Mu-GlcNAc as substrate preincubated for 10 mins followed by substrate addition and measured after 30 mins by fluorescence assay
MEASURED_ENDPOINT: IC50

SMILES_CODE	MEAS_VALUE
CC(=O)N[C@@H]1[C@@H](O)[C@H](O)[C@@H](CO)O[C@H]1SCCNCCN1C(=O)c2cccc3c(N(C)C)ccc(c23)C1=O	> 100 µM

====

- TARGET: Protein O-GlcNAcase (Homo sapiens)
- ASSAY_NOTES: Inhibition of recombinant human OGA expressed in Escherichia coli BL21 (DE3) using varying levels of 4-Mu-GlcNAc as substrate preincubated for 10 mins followed by substrate addition and measured after 30 mins by dixon plot analysis
pKi: −log10 of the molar value.

SMILES_CODE	pKi
CC(=O)N[C@@H]1[C@@H](O)[C@H](O)[C@@H](CO)O[C@H]1SCCNCCN1C(=O)c2cccc3c(Br)ccc(c23)C1=O	5.92
CC(=O)N[C@@H]1[C@@H](O)[C@H](O)[C@@H](CO)O[C@H]1SCCCNCCCN1C(=O)c2cccc3c(Cl)ccc(c23)C1=O	5.68
CC(=O)N[C@@H]1[C@@H](O)[C@H](O)[C@@H](CO)O[C@H]1SCCCNCCN1C(=O)c2cccc3c(Cl)ccc(c23)C1=O	6.15
CC(=O)N[C@@H]1[C@@H](O)[C@H](O)[C@@H](CO)O[C@H]1SCCNCCN1C(=O)c2cccc3c(Cl)ccc(c23)C1=O	5.70
COc1ccc2c3c(cccc13)C(=O)N(CCCNCCCS[C@@H]1O[C@H](CO)[C@@H](O)[C@H](O)[C@H]1NC(C)=O)C2=O	4.80
CC(=O)N[C@@H]1[C@@H](O)[C@H](O)[C@@H](CO)O[C@H]1SCCNCCCN1C(=O)c2cccc3c(N4CCCCC4)ccc(c23)C1=O	6.22
CC(=O)N[C@@H]1[C@@H](O)[C@H](O)[C@@H](CO)O[C@H]1SCCCNCCCN1C(=O)c2cccc3c(Br)ccc(c23)C1=O	5.66

====

- TARGET: Beta-hexosaminidase (Homo sapiens)
- ASSAY_NOTES: Inhibition of human beta-N-acetylhexosaminidase using pNP-beta-GlcNAc as substrate by dixon plot analysis
pKi: −log10 of the molar value.
MEASURED_ENDPOINT: pKi

SMILES_CODE	RELATION_QUALIFIER	MEAS_VALUE
Cc1nnc(CNCCN2C(=O)c3cccc4c(N(C)C)ccc(c34)C2=O)s1	<	4.00
Cc1nnc(CNCCN2C(=O)c3cccc4cccc(c34)C2=O)s1	=	5.66

====

- TARGET: Beta-hexosaminidase subunit beta (Homo sapiens)
- ASSAY_NOTES: Inhibition of recombinant human His6-tagged HexB expressed in Pichia pastoris at 20 uM using 4-Mu-GlcNAc as substrate preincubated for 10 mins followed by substrate addition and measured after 30 mins by fluorescence assay relative to control

SMILES_CODE	TARGET	OUTPUT_UNIT	inhibition
CC(=O)N[C@@H]1[C@@H](O)[C@H](O)[C@@H](CO)O[C@H]1SCCNCCCN1C(=O)c2cccc3c([N+](=O)[O-])ccc(c23)C1=O	Beta-hexosaminidase subunit beta (Homo sapiens)	%	8
CC(=O)N[C@@H]1[C@@H](O)[C@H](O)[C@@H](CO)O[C@H]1SCCCNCCN1C(=O)c2cccc3c(Br)ccc(c23)C1=O	Beta-hexosaminidase subunit beta (Homo sapiens)	%	60.6
CC(=O)N[C@@H]1[C@@H](O)[C@H](O)[C@@H](CO)O[C@H]1SCCNCCCN1C(=O)c2cccc3c(Cl)ccc(c23)C1=O	Beta-hexosaminidase subunit beta (Homo sapiens)	%	70.8
CC(=O)N[C@@H]1[C@@H](O)[C@H](O)[C@@H](CO)O[C@H]1SCCNCCN1C(=O)c2cccc3c(Br)ccc(c23)C1=O	Beta-hexosaminidase subunit beta (Homo sapiens)	%	73.3
COc1ccc2c3c(cccc13)C(=O)N(CCCNCCS[C@@H]1O[C@H](CO)[C@@H](O)[C@H](O)[C@H]1NC(C)=O)C2=O	Beta-hexosaminidase subunit beta (Homo sapiens)	%	47.9
CC(=O)N[C@@H]1[C@@H](O)[C@H](O)[C@@H](CO)O[C@H]1SCCCNCCCN1C(=O)c2cccc3c(N(C)C)ccc(c23)C1=O	Beta-hexosaminidase subunit beta (Homo sapiens)	%	0
CC(=O)N[C@@H]1[C@@H](O)[C@H](O)[C@@H](CO)O[C@H]1SCCNCCN1C(=O)c2cccc3c(Cl)ccc(c23)C1=O	Beta-hexosaminidase subunit beta (Homo sapiens)	%	73.8
CC(=O)N[C@@H]1[C@@H](O)[C@H](O)[C@@H](CO)O[C@H]1SCCCNCCCN1C(=O)c2cccc3c([N+](=O)[O-])ccc(c23)C1=O	Beta-hexosaminidase subunit beta (Homo sapiens)	%	0
CC(=O)N[C@@H]1[C@@H](O)[C@H](O)[C@@H](CO)O[C@H]1SCCCNCCN1C(=O)c2cccc3c(Cl)ccc(c23)C1=O	Beta-hexosaminidase subunit beta (Homo sapiens)	%	75.2
CC(=O)N[C@@H]1[C@@H](O)[C@H](O)[C@@H](CO)O[C@H]1SCCCNCCCN1C(=O)c2cccc3c(Cl)ccc(c23)C1=O	Beta-hexosaminidase subunit beta (Homo sapiens)	%	74.3
